Overview of recorded Plant response rating, Pigweed for various molecules
Test system: pigweed (Amaranthus retroflexus)
Experiment: Test A preemergence
Assay type: in vivo
Settings: 125 g ai/ha, Preemergence; visual injury after approximately 10 d; 0 to 100 scale where 0 is no effect and 100 is complete control
Form: value (number only, do not type unit).

Some solved entries appear below for comparison.
- molecule: "Cc1cccc(C2CN(C)C(=O)C2C(=O)Nc2cccc(F)c2F)c1 (stereo not drawn) [Compound 667]"
  Plant response rating, Pigweed: 20
- molecule: "CN1CC(c2ccc(C(F)(F)F)cc2)C(C(=O)Nc2ccccc2S(C)(=O)=O)C1=O (stereo not drawn) [Compound 624]"
  Plant response rating, Pigweed: 80

Give the reported Plant response rating, Pigweed for O=C1NCC(c2cc(F)c(F)cc2F)C1C(=O)Nc1ccc(F)c(F)c1F (stereo not drawn) [Compound 614] (system: pigweed (Amaranthus retroflexus)).
0
